# System: Caco-2 cells
# Test method notes: Permeability across Caco-2 monolayer (apical concentration by LC-MS)
# Conditions: Caco-2 monolayer, 10 µM apical, 4 h vs t = 0 h
Marks after values point to notes of the source that are not given here.
Below, each entry is listed alongside its reported % of Decrease in SL Concentration in the Apical Side (t = 4h).
Readout: % of Decrease in SL Concentration in the Apical Side (t = 4h)

molecule=C=C1C(=O)O[C@@H]2[C@H]3C(CO)=CC(=O)C3=C(C)C[C@H](O)[C@@H]12 assay_value="28.8 *** %"
molecule="C=C1C(=O)O[C@@H]2/C=C(\\C)CC/C=C(\\C)CC[C@@H]12 [Costunolide]" assay_value="100 ** %"
molecule="CC1=C2C(=O)C=C(CO)C2C2OC(=O)C(C)C2C(OC(=O)Cc2ccc(O)cc2)C1 (stereo not drawn) [11β,13-dihydrolactucopicrin]" assay_value="29.9 * %"
molecule=C=C1C(=O)O[C@@H]2[C@H]3C(CO)=CC(=O)C3=C(C)C[C@H](OC(=O)Cc3ccc(O)cc3)[C@@H]12 assay_value="100 ** %"
molecule="C=C1C(=O)O[C@H]2[C@H]1CC/C(C)=C/CC[C@@]1(C)O[C@@H]21 [Parthenolide, parthenolide, reference compound]" assay_value="100 ** %"
molecule="CC1=C2C(=O)C=C(CO)C2C2OC(=O)C(C)C2C(O)C1 (stereo not drawn) [11β,13-dihydrolactucin]" assay_value=8.7%
